# System: Brassica napus
# MEASUREMENT PROTOCOL: Herbicidal activity against Brassica napus L. at 1.5 kg/hectare administered preemergence of first true leaf measured after 10 days
# Assay type: functional
# STUDY CONDITIONS: pre-emergence, 240 h
Assign inhibition at 1500 g/ha to each entry below.
Answer with a number only, understood to be in %.

Given CCOCCOC(=O)c1c(CC)nn(-c2ccc(Cl)cc2)c1N , state its recorded inhibition at 1500 g/ha. 0

# inhibition at 1500 g/ha lookup, item CCOCCOC(=O)/C(C#N)=C(\NCc1ccc(Cl)nc1)SC 47.6

// lookup inhibition at 1500 g/ha for CCOCCOC(=O)/C(C#N)=C(/CC)NNc1c(Cl)cccc1Cl 5.3

Return reported inhibition at 1500 g/ha; argument: CCOCCOC(=O)c1c(SC)nn(-c2ccc([N+](=O)[O-])cc2)c1N 0

# query: inhibition at 1500 g/ha of entry CCOCCOC(=O)c1c(SC)nn(-c2ccc(C)cc2C)c1N 0

Which inhibition at 1500 g/ha value belongs to CCOCCOC(=O)/C(C#N)=C(/CC)NNc1c(Cl)cc(Cl)cc1Cl ? 0

Give the measured inhibition at 1500 g/ha of CCOCCOC(=O)c1c(CC)nn(-c2ccccc2)c1N . 0

Any idea what inhibition at 1500 g/ha was measured for CCOCCOC(=O)c1c(C(C)C)nn(-c2ccc(Cl)cc2Cl)c1N ? 0

Please report the recorded inhibition at 1500 g/ha for CCOCCOC(=O)c1c(SC)nn(-c2ccc(Cl)cc2Cl)c1N . 30

What value of inhibition at 1500 g/ha has been recorded for this entry: CCOCCOC(=O)c1c(C(C)C)nn(-c2ccc(Cl)cc2)c1N 40

Reported inhibition at 1500 g/ha for CCOCCOC(=O)c1c(CC)nn(-c2ccc([N+](=O)[O-])cc2)c1N : what is it? 0
